Below, each entry is listed with its recorded GI50.
- Tested on: MDA-MB-468 breast
- method.summary: NCI tumour cell line growth inhibition, 48 h

CC[C@@]12CC(C(=O)OC)=C3Nc4cc5c(cc4[C@@]34CCN(C[C@H]3O[C@H]31)[C@@H]24)[C@@H]1[C@H](O5)[C@@H](O)[C@@]2(CC)CC(C(=O)OC)=C3Nc4cc(O)ccc4[C@@]34CCN1[C@@H]24
55.3 nM

Ask | Supply GI50 value. Item: O=c1cc(CNc2cc(F)cc(F)c2)c2ccc(I)cc2[nH]1
Reply | 409 nM

Ask | Fill in reported GI50 for this entry: CCc1ccc(NC(=O)Nc2c[nH]c3ccccc23)cc1
Reply | 18800 nM

Ask | Fill in GI50 for record O=S(=O)(c1ccc(NC(=S)NCc2cccnc2)cc1)N1CCCCC1
Reply | 9800 nM

Ask | Recall and state the measured GI50 for N#Cc1ncc(/N=C/c2ccc(N(CCCl)CCCl)cc2)s1 .
Reply | 436 nM

Ask | Give reported GI50 value for CCCN(Cc1ccc(F)cc1)c1ccc(CO)c(Cl)c1
Reply | 21.2 nM

Ask | Let me know recorded GI50 for CC[C@H](Nc1nc(N)nc(C)c1C#N)c1nc2cccc(CN(C)c3ncc(C(=O)NO)cn3)c2c(=O)n1-c1ccccc1 , thanks.
Reply | 367 nM
